Values were extracted from patent US10106538B2.

Below, each of the compounds is paired with its reported inhibition at 0.01 µM value.
molecular target: JAK3 (Homo sapiens, UniProt P52333); construct: purchased Carna Biosciences; assay: Off-chip Mobility Shift Assay (MSA) kinase inhibition; format: biochemical; conditions: inhibitor concentration 0.01 μM
Sequence (P52333 whole entry): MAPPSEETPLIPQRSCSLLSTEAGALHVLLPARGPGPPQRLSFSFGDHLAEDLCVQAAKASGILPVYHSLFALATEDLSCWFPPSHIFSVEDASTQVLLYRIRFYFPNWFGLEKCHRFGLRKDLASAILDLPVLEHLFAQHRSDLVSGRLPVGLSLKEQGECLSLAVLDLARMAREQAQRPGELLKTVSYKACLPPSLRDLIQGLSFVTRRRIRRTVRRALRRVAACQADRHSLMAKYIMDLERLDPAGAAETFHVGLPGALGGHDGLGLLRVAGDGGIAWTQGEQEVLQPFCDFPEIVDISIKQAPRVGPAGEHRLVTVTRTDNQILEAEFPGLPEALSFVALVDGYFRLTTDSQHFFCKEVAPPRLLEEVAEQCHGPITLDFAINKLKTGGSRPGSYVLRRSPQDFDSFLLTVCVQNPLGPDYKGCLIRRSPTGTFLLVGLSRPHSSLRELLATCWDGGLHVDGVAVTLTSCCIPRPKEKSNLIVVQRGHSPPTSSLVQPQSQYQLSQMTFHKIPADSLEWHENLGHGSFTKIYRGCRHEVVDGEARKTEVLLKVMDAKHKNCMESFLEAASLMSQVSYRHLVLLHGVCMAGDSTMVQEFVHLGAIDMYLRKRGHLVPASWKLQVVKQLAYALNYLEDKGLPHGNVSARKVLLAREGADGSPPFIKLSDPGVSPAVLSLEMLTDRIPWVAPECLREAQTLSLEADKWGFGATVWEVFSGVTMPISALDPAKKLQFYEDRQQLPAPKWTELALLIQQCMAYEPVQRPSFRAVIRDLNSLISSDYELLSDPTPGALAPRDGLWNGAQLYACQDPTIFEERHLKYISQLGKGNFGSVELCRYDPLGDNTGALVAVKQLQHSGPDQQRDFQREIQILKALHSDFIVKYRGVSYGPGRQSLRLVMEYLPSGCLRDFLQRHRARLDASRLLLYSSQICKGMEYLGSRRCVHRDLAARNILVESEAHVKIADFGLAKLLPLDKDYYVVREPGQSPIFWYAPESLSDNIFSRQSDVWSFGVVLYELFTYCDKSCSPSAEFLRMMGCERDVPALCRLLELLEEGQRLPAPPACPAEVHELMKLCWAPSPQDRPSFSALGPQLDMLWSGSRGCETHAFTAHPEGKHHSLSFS

// worked examples, inhibition at 0.01 µM included
Consider C/C=C/S(=O)(=O)Nc1ccc(F)c(C(=O)c2c[nH]c3ncc(-c4ccc(Cl)cc4)cc23)c1F [200-93a] . Its measured inhibition at 0.01 µM is > 30%

Consider O=C(c1c(F)ccc(NS(=O)(=O)CCCO)c1F)c1c[nH]c2ncc(-c3ccc(Cl)cc3)cc12 . Its measured inhibition at 0.01 µM is < 30%

Consider COCCCS(=O)(=O)Nc1ccc(F)c(C(=O)c2c[nH]c3ncc(-c4ccc(Cl)cc4)cc23)c1F . Its measured inhibition at 0.01 µM is < 20%

Proceeding to the next compound to report its inhibition at 0.01 µM.
Consider COCCS(=O)(=O)Nc1ccc(F)c(C(=O)c2c[nH]c3ncc(-c4ccc(Cl)cc4)cc23)c1F . Its measured inhibition at 0.01 µM is < 20%

* * *

target: KIT (Homo sapiens); construct: purchased Carna Biosciences; experiment: Off-chip Mobility Shift Assay (MSA) kinase inhibition; assay type: biochemical; details: inhibitor concentration 0.01 μM
Sequence (P10721 26-976): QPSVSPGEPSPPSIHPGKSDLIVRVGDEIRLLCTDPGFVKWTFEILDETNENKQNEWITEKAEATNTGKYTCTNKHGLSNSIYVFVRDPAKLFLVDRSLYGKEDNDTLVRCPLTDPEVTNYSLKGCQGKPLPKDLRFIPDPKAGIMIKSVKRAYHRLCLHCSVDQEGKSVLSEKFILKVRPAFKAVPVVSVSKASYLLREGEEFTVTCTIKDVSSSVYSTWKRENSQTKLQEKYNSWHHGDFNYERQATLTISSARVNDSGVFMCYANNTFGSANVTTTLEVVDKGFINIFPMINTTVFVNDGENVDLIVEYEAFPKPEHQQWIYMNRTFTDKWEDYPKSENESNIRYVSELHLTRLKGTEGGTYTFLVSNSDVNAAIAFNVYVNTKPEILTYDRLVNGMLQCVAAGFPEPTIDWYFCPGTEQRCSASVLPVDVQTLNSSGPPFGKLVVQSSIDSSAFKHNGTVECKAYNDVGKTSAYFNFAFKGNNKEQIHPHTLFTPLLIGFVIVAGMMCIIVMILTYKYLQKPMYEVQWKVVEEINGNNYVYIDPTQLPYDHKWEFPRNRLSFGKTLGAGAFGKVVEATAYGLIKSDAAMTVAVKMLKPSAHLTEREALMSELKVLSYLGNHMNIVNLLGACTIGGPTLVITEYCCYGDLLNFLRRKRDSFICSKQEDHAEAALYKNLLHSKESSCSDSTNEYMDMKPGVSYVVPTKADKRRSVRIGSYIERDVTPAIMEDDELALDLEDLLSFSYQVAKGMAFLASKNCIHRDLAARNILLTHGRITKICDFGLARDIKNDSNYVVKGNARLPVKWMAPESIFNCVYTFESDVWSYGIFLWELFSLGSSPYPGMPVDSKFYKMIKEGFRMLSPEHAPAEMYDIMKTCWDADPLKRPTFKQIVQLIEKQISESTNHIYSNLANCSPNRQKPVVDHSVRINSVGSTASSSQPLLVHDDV
reported_property: inhibition at 0.01 µM

// worked examples, inhibition at 0.01 µM included
Consider C/C=C/S(=O)(=O)Nc1ccc(F)c(C(=O)c2c[nH]c3ncc(-c4ccc(Cl)cc4)cc23)c1F [200-93a] . Its measured inhibition at 0.01 µM is > 30%

Consider COCCS(=O)(=O)Nc1ccc(F)c(C(=O)c2c[nH]c3ncc(-c4ccc(Cl)cc4)cc23)c1F . Its measured inhibition at 0.01 µM is < 20%

Consider COCCCS(=O)(=O)Nc1ccc(F)c(C(=O)c2c[nH]c3ncc(-c4ccc(Cl)cc4)cc23)c1F . Its measured inhibition at 0.01 µM is < 20%

Proceeding to the next molecule to report its inhibition at 0.01 µM.
Consider O=C(c1c(F)ccc(NS(=O)(=O)CCCO)c1F)c1c[nH]c2ncc(-c3ccc(Cl)cc3)cc12 . Its measured inhibition at 0.01 µM is > 30%

* * *

target: FGR (Homo sapiens); construct: purchased Carna Biosciences; assay: Off-chip Mobility Shift Assay (MSA) kinase inhibition; type: biochemical; conditions: inhibitor concentration 0.1 μM
reported_property: inhibition at 0.1 µM

Consider O=C(c1c(F)ccc(NS(=O)(=O)CC(O)CO)c1F)c1c[nH]c2ncc(-c3ccc(Cl)cc3)cc12 (stereo not shown) [200-73] . Its measured inhibition at 0.1 µM is < 30%

Consider CC(=O)CS(=O)(=O)Nc1ccc(F)c(C(=O)c2c[nH]c3ncc(-c4ccc(Cl)cc4)cc23)c1F [200-117] . Its measured inhibition at 0.1 µM is > 30%

Consider CC(O)CS(=O)(=O)Nc1ccc(F)c(C(=O)c2c[nH]c3ncc(-c4ccc(Cl)cc4)cc23)c1F (stereo not shown) [200-115] . Its measured inhibition at 0.1 µM is > 30%

Consider O=C(c1c(F)ccc(NS(=O)(=O)CCCO)c1F)c1c[nH]c2ncc(-c3ccc(Cl)cc3)cc12 [200-17] . Its measured inhibition at 0.1 µM is > 50%

* * *

target: KIT(V560G) (Homo sapiens, UniProt P10721, V560G); construct: purchased Carna Biosciences; experiment: Off-chip Mobility Shift Assay (MSA) kinase inhibition; type: biochemical; details: inhibitor concentration 0.1 μM
Sequence (P10721 26-976 V560G): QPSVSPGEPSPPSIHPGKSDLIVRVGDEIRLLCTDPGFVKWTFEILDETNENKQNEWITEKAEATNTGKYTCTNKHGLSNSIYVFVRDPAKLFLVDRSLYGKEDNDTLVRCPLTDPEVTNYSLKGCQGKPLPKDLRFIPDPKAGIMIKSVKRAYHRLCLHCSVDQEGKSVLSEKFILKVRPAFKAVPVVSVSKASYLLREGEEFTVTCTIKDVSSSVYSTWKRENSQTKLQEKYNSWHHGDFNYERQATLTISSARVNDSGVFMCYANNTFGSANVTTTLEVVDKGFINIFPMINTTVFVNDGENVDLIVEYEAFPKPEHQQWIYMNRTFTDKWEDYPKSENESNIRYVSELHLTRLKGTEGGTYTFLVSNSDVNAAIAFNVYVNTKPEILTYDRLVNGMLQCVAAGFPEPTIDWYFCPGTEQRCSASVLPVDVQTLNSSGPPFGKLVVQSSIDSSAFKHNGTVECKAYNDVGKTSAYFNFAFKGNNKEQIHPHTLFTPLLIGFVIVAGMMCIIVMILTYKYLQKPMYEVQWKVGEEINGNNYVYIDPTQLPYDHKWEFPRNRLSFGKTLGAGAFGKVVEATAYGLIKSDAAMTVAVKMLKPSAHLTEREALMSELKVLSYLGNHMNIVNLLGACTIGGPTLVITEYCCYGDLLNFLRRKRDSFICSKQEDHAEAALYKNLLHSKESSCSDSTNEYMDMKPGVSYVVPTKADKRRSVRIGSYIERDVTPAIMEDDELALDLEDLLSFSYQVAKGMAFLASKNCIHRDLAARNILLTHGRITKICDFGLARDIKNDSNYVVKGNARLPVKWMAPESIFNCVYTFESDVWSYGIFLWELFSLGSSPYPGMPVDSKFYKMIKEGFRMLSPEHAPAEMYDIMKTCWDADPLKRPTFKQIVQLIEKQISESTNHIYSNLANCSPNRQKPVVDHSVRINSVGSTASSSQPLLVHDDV
reported_property: inhibition at 0.1 µM

Consider O=C(c1c(F)ccc(NS(=O)(=O)CCCO)c1F)c1c[nH]c2ncc(-c3ccc(Cl)cc3)cc12 . Its measured inhibition at 0.1 µM is > 50%

Continuing:
Consider CC(O)CS(=O)(=O)Nc1ccc(F)c(C(=O)c2c[nH]c3ncc(-c4ccc(Cl)cc4)cc23)c1F (stereo not shown) . Its measured inhibition at 0.1 µM is < 30%

Consider O=C(c1c(F)ccc(NS(=O)(=O)CC(O)CO)c1F)c1c[nH]c2ncc(-c3ccc(Cl)cc3)cc12 (stereo not shown) . Its measured inhibition at 0.1 µM is < 30%

Consider CC(=O)CS(=O)(=O)Nc1ccc(F)c(C(=O)c2c[nH]c3ncc(-c4ccc(Cl)cc4)cc23)c1F . Its measured inhibition at 0.1 µM is < 30%

* * *

target: KIT(V560G) (Homo sapiens, UniProt P10721, V560G); construct: purchased Carna Biosciences; experiment: Off-chip Mobility Shift Assay (MSA) kinase inhibition; assay type: biochemical; conditions: inhibitor concentration 0.01 μM
reported_property: inhibition at 0.01 µM

Consider COCCCS(=O)(=O)Nc1ccc(F)c(C(=O)c2c[nH]c3ncc(-c4ccc(Cl)cc4)cc23)c1F . Its measured inhibition at 0.01 µM is < 20%

Consider O=C(c1c(F)ccc(NS(=O)(=O)CCCO)c1F)c1c[nH]c2ncc(-c3ccc(Cl)cc3)cc12 . Its measured inhibition at 0.01 µM is < 30%

Consider C/C=C/S(=O)(=O)Nc1ccc(F)c(C(=O)c2c[nH]c3ncc(-c4ccc(Cl)cc4)cc23)c1F [200-93a] . Its measured inhibition at 0.01 µM is > 30%

Proceeding to the next molecule to report its inhibition at 0.01 µM.
Consider COCCS(=O)(=O)Nc1ccc(F)c(C(=O)c2c[nH]c3ncc(-c4ccc(Cl)cc4)cc23)c1F . Its measured inhibition at 0.01 µM is < 20%

* * *

biological target: FGR (Homo sapiens, UniProt P09769); construct: purchased Carna Biosciences; assay: Off-chip Mobility Shift Assay (MSA) kinase inhibition; format: biochemical; details: inhibitor concentration 0.01 μM
Sequence (P09769 whole entry): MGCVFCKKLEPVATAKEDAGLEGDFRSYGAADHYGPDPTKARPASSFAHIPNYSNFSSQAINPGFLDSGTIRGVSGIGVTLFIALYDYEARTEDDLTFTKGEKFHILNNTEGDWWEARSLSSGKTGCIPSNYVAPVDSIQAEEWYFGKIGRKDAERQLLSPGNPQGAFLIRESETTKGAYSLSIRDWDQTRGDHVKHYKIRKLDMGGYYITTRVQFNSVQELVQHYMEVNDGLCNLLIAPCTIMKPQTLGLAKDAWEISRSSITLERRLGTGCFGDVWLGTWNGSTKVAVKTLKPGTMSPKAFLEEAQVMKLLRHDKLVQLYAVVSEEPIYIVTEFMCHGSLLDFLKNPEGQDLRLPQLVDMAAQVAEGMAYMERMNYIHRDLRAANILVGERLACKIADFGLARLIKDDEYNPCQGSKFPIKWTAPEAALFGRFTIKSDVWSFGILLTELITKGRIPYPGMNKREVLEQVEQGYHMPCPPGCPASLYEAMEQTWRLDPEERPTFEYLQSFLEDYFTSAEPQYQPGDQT
reported_property: inhibition at 0.01 µM

// worked examples, inhibition at 0.01 µM included
Consider C/C=C/S(=O)(=O)Nc1ccc(F)c(C(=O)c2c[nH]c3ncc(-c4ccc(Cl)cc4)cc23)c1F [200-93a] . Its measured inhibition at 0.01 µM is > 30%

Consider O=C(c1c(F)ccc(NS(=O)(=O)CCCO)c1F)c1c[nH]c2ncc(-c3ccc(Cl)cc3)cc12 [200-17] . Its measured inhibition at 0.01 µM is > 30%

Continuing:
Consider COCCCS(=O)(=O)Nc1ccc(F)c(C(=O)c2c[nH]c3ncc(-c4ccc(Cl)cc4)cc23)c1F [200-123] . Its measured inhibition at 0.01 µM is < 20%

Consider COCCS(=O)(=O)Nc1ccc(F)c(C(=O)c2c[nH]c3ncc(-c4ccc(Cl)cc4)cc23)c1F [200-139] . Its measured inhibition at 0.01 µM is < 20%

* * *

target: SRC (Homo sapiens); construct: purchased Carna Biosciences; assay: Off-chip Mobility Shift Assay (MSA) kinase inhibition; type: biochemical; conditions: inhibitor concentration 0.1 μM
Sequence (P12931 whole entry): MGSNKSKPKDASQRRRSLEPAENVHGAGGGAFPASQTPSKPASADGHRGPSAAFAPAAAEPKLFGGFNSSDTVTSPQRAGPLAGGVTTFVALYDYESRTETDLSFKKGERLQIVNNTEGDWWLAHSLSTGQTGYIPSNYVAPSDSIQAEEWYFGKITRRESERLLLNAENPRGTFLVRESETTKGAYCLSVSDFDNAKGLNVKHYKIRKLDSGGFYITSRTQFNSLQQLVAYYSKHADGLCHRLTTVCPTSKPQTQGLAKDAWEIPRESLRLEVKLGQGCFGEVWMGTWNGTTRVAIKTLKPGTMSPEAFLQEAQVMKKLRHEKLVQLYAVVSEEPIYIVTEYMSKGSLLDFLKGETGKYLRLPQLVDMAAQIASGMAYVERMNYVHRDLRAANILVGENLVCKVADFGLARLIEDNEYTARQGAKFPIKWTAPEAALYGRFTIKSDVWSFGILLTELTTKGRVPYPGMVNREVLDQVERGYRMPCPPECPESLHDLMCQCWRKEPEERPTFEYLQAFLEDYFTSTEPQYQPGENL
reported_property: inhibition at 0.1 µM

// worked examples, inhibition at 0.1 µM included
Fill in: SRC (Homo sapiens) inhibition at 0.1 µM for O=C(c1c(F)ccc(NS(=O)(=O)CCCO)c1F)c1c[nH]c2ncc(-c3ccc(Cl)cc3)cc12 = > 50%

Fill in: SRC (Homo sapiens) inhibition at 0.1 µM for CC(=O)CS(=O)(=O)Nc1ccc(F)c(C(=O)c2c[nH]c3ncc(-c4ccc(Cl)cc4)cc23)c1F = < 30%

Fill in: SRC (Homo sapiens) inhibition at 0.1 µM for CC(O)CS(=O)(=O)Nc1ccc(F)c(C(=O)c2c[nH]c3ncc(-c4ccc(Cl)cc4)cc23)c1F (stereo not shown) = < 30%

Continuing:
Fill in: SRC (Homo sapiens) inhibition at 0.1 µM for O=C(c1c(F)ccc(NS(=O)(=O)CC(O)CO)c1F)c1c[nH]c2ncc(-c3ccc(Cl)cc3)cc12 (stereo not shown) = < 30%

* * *

molecular target: LYNa (Homo sapiens, UniProt P07948); construct: purchased Carna Biosciences; assay: Off-chip Mobility Shift Assay (MSA) kinase inhibition; assay type: biochemical; conditions: inhibitor concentration 0.1 μM
Sequence (P07948 whole entry): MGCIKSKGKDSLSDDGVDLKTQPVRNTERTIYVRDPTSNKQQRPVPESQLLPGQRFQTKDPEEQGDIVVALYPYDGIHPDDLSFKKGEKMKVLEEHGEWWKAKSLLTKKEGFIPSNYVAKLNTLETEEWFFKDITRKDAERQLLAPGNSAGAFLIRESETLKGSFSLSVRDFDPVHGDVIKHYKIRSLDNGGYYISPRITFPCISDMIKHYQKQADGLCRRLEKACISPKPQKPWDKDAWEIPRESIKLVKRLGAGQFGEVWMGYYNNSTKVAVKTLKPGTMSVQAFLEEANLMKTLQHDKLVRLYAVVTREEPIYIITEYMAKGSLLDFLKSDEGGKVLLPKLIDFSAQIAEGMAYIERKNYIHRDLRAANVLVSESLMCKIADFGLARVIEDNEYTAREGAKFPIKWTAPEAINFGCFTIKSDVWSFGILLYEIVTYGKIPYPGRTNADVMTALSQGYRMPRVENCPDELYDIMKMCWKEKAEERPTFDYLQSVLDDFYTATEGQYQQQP
Below, each of the compounds is paired with its reported inhibition at 0.1 µM value.

// worked examples, inhibition at 0.1 µM included
Consider O=C(c1c(F)ccc(NS(=O)(=O)CCCO)c1F)c1c[nH]c2ncc(-c3ccc(Cl)cc3)cc12 . Its measured inhibition at 0.1 µM is > 50%

Consider CC(=O)CS(=O)(=O)Nc1ccc(F)c(C(=O)c2c[nH]c3ncc(-c4ccc(Cl)cc4)cc23)c1F . Its measured inhibition at 0.1 µM is > 30%

Consider CC(O)CS(=O)(=O)Nc1ccc(F)c(C(=O)c2c[nH]c3ncc(-c4ccc(Cl)cc4)cc23)c1F (stereo not shown) . Its measured inhibition at 0.1 µM is < 30%

Proceeding to the next compound to report its inhibition at 0.1 µM.
Consider O=C(c1c(F)ccc(NS(=O)(=O)CC(O)CO)c1F)c1c[nH]c2ncc(-c3ccc(Cl)cc3)cc12 (stereo not shown) . Its measured inhibition at 0.1 µM is < 30%
